Target: cToxR_1-134 (Vibrio cholerae, UniProt P15795 1-134)
Sequence (P15795 1-134): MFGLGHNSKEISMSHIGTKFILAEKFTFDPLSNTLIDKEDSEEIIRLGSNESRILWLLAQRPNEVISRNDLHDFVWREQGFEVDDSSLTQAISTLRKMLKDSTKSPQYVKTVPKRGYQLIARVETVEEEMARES
Experiment: NMR CSP titration; mean as printed; T111 0.15 ± 4e-9, L99 0.63 ± 1e-8
Details: protein: recombinant; tags: N-terminal His6; chain copies: 2; none in NMR; blunt
PROPERTY LABEL: pKd
pKd field: float, defined as -log10 of concentration (mol/L).

For toxT (dsDNA) DNA 1: CTCAAAAAACATAAAA DNA 2: TTTTATGTTTTTTGAG , what is its reported pKd? 6.46

meta.source: paper PMC8517210
